System: SARS-CoV-2
procedure.summary: microbe, parasite or virus in culture
test.context: Severe acute respiratory syndrome coronavirus 2, HeLa-ACE2, 24 h, read-out: CoV-2 EC50 [μM] (Geomeans, n ≥ 2)
Residues, ends and D or L forms follow the SMILES beside them. *: point of attachment. Cbz = O=C(OCc1ccccc1)*; CHN2 = [N-]=[N+]=C*
// reported EC50 per item

Guide cases for EC50, answers given:
GET EC50 | system: SARS-CoV-2 | item: `OCCN1CCN(CC/C=C2\c3ccccc3Sc3ccc(Cl)cc32)CC1` 2.08 µM

GET EC50 | system: SARS-CoV-2 | item: CC(C)CC(NC(=O)OCc1ccccc1)C(=O)NC(C(=O)NCC(=O)C=[N+]=[N-])C(C)C (stereo not drawn) [Z LVG CHN2] (Cbz-Leu-Val-Gly-CHN2; configuration not given here) 0.072 µM

GET EC50 | system: SARS-CoV-2 | item: `CN1CCN(c2ccc(C(=O)NCc3cnc(C#N)nc3NCC(C)(C)C)cc2)CC1` 2.69 µM

GET EC50 | system: SARS-CoV-2 | item: `CCOC(=O)c1c(CSc2ccccc2)n(C)c2cc(Br)c(O)c(CN(C)C)c12` > 5.97 µM

GET EC50 | system: SARS-CoV-2 | item: CN(C)CCC1CCc2cc(OCc3ccc(-c4ccccc4)cc3)ccc2C1 (stereo not drawn) 1.41 µM

GET EC50 | system: SARS-CoV-2 | item: `CCOC(=O)[C@@H]1O[C@H]1C(=O)N[C@@H](CC(C)C)C(=O)N1CCN(Cc2ccc(OC)c(OC)c2OC)CC1` 0.79 µM

New cases:
GET EC50 | system: SARS-CoV-2 | item: CN1CCN(C2=Cc3cc(Cl)ccc3/C(=C\C#N)c3ccccc32)CC1 [Alkene Stereoisomer analog of Rilapine] 2.99 µM

GET EC50 | system: SARS-CoV-2 | item: CC(CN(C)C)CN1c2ccccc2CCc2ccccc21 (stereo not drawn) 2.11 µM

GET EC50 | system: SARS-CoV-2 | item: `COc1cc2c(Nc3ccc(Cl)c(Cl)c3F)ncnc2cc1OC[C@@H]1C[C@@H]2CN(C)C[C@@H]2C1` 2.44 µM

GET EC50 | system: SARS-CoV-2 | item: `CC(C)C(=O)OC[C@H]1O[C@@H](n2ccc(NO)nc2=O)[C@H](O)[C@@H]1O` > 9.45 µM

GET EC50 | system: SARS-CoV-2 | item: `N#Cc1ccc2c(c1)[C@H]1CN(CCCCNC(=O)c3ccc(-c4ccccc4)cc3)C[C@@H]1CO2` 3.91 µM

GET EC50 | system: SARS-CoV-2 | item: CC(CN1CCN(c2cccc3c2CCCN3)CC1)NC(=O)c1ccc(F)cc1 (stereo not drawn) > 9.59 µM

GET EC50 | system: SARS-CoV-2 | item: COc1ccc2c(c1)[C@]1(CC1c1ccc3c(/C=C/c4ccc(CN5C[C@@H](C)O[C@@H](C)C5)cc4)n[nH]c3c1)C(=O)N2 (stereo partly drawn) > 7 µM

GET EC50 | system: SARS-CoV-2 | item: `CCCCN1CC[C@H](c2ccc(N(C)C)cc2)[C@@H](COc2ccc(C(F)(F)F)cc2)C1` 2.75 µM

GET EC50 | system: SARS-CoV-2 | item: `C=C(C)[C@@H]1CC[C@]2(C(=O)OCC(N)(CO)CO)CC[C@]3(C)[C@H](CC[C@@H]4[C@@]5(C)CC[C@H](OC(C)=O)C(C)(C)[C@@H]5CC[C@]43C)[C@@H]12` 1.87 µM

The reported numbers originate from patent US20230346820A1.
